- target.desc: Corticotropin releasing factor receptor (Rattus norvegicus, UniProt P47866+P35353)
- experimental.protocol: Inhibition of corticotropin releasing factor stimulated cAMP production in rat pituitary assay
- Format: functional, tissue-based, Pituitary gland
reported.property: IC50 (nM)

These solved cases illustrate the format of a correct answer.
CCC[C@@H](c1ccccc1)N(CCC)c1nc(-c2cc(OC)c(OC)cc2Cl)n(C)n1.Cl = 240
CCCC[C@@H](c1ccccc1)N(CCC)c1nc(-c2ccc(OC)cc2C)n(C)n1.Cl = 92
CCC[C@@H](c1ccccc1)N(CCC)c1nc(-c2ccc(OC)cc2C)n(C)n1.Cl = 120

1. CCC[C@@H](c1ccccc1)N(CCC)c1nc(-c2ccc(Cl)cc2OC)n(C)n1.Cl
2. CCCC[C@@H](c1ccc(F)cc1)N(CCC)c1nc(-c2ccc(Cl)cc2OC)n(C)n1.Cl
[in] Quick check, higher IC50 between 1 and 2 ? Respond with the label that goes with your answer.
[out] 1
(1: 91 nM, 2: 49 nM)

====

- target.desc: Corticotropin-releasing factor receptor 1 (Homo sapiens, UniProt P34998)
- Sequence (P34998 whole entry): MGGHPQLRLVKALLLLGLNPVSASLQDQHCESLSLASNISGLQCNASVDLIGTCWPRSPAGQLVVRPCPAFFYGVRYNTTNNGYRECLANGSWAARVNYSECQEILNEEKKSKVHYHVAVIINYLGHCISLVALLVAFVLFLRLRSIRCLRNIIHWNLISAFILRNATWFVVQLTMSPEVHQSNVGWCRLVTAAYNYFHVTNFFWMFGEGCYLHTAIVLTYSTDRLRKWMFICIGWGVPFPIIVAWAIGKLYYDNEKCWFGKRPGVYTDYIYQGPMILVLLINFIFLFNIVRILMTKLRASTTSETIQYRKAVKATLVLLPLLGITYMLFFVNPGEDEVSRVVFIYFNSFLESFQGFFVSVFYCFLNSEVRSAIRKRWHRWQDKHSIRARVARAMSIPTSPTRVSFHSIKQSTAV
reported.property: Ki (nM)

These solved cases illustrate the format of a correct answer.
CCCC[C@H](c1ccc(F)cc1)N(CCC)c1nc(-c2ccc(Cl)cc2OC)n(C)n1 = 46
CCCN(c1nc(-c2ccc(Cl)cc2OC)n(C)n1)[C@H](CC)c1ccc(C(F)(F)F)cc1 = 428
CCCN(c1nc(-c2ccc(Cl)cc2OC)n(C)n1)C(C1CC1)C1CC1 = 28
CCC[C@H](c1ccccc1)N(CCC)c1nc(-c2ccc(OC)cc2C)n(C)n1 = 380

1. CCCC[C@@H](c1ccccc1)N(CCC)c1nc(-c2ccc(OC)cc2C)n(C)n1.Cl
2. CCCN(c1nc(-c2ccc(Cl)cc2OC)n(C)n1)C(CC)c1ccccc1 (stereo not given)
3. CCCN(c1nc(-c2ccc(Cl)cc2Cl)n(C)n1)C(C1CC1)C1CC1
[in] Hey, can you sort those compounds up there by Ki, smallest first? List labels; respect the requested ordering.
[out] 1, 3, 2
(1: 5.7 nM, 3: 9.2 nM, 2: 26 nM)

a. CCCN(CCC)c1nc(-c2ccc(Cl)cc2Cl)n(C)n1
b. CCCN(CC1CC1)c1nc(C)nc(Nc2c(Cl)cc(Cl)cc2Cl)c1Cl
[in] Quick check, higher Ki between a and b ? Respond with the label that goes with your answer.
[out] a

====

- experimental.protocol: Time to attain peak plasma concentration upon oral administration of 2 mg/kg to rats
- Assay type: ADME, organism-based
- Design: dose 2 mg/kg, route oral
- study.conditions: rat
reported.property: Tmax (min)
Give the number; min is assumed, so skip it.

[in] I am curious: what Tmax value has been reported for CCCCC(c1ccc(F)cc1)N(CCC)c1nc(-c2ccc(Cl)cc2OC)n(C)n1 (stereo unspecified) ?
[out] 30

====

- experimental.protocol: Plasma half life in rats upon intravenous administration of 1 mg/kg
- Assay type: ADME, organism-based
- Parameters: dose 1 mg/kg, route intravenous
- study.conditions: rat
reported.property: half-life (h)
Give the number; h is assumed, so skip it.

[in] I am curious: what half-life value has been reported for CCCCC(c1ccc(F)cc1)N(CCC)c1nc(-c2ccc(Cl)cc2OC)n(C)n1 (stereo unspecified) ?
[out] 3.3

====

- experimental.protocol: Bioavailability upon 2 mg/kg oral administration to rats
- Assay type: ADME, organism-based
- study.conditions: rat, in vivo
reported.property: bioavailability (%)
Give the number; % is assumed, so skip it.

[in] I am curious: what bioavailability value has been reported for CCCCC(c1ccc(F)cc1)N(CCC)c1nc(-c2ccc(Cl)cc2OC)n(C)n1 (stereo unspecified) ?
[out] 84

====

- experimental.protocol: Peak plasma concentration upon oral administration of 2 mg/kg to rats
- Type: ADME, organism-based
- Parameters: dose 2 mg/kg, route oral
- study.conditions: rat
reported.property: Cmax (ng/mL)
Give the number; ng/mL is assumed, so skip it.

[in] I am curious: what Cmax value has been reported for CCCCC(c1ccc(F)cc1)N(CCC)c1nc(-c2ccc(Cl)cc2OC)n(C)n1 (stereo unspecified) ?
[out] 290

====

- experimental.protocol: Volume of distribution in rats upon intravenous administration of 1 mg/kg
- Format: ADME, organism-based
- Set-up: dose 1 mg/kg, route intravenous
- study.conditions: rat, in vivo, read-out: V
reported.property: Vd (L/kg)
Give the number; L/kg is assumed, so skip it.

[in] I am curious: what Vd value has been reported for CCCCC(c1ccc(F)cc1)N(CCC)c1nc(-c2ccc(Cl)cc2OC)n(C)n1 (stereo unspecified) ?
[out] 7.8

====

- target.desc: Corticotropin releasing factor receptor (Rattus norvegicus, UniProt P47866+P35353)
- experimental.protocol: Inhibition of corticotropin releasing factor stimulated cAMP production in rat pituitary assay
- Type: functional, tissue-based, Pituitary gland
reported.property: IC50 (nM)

These solved cases illustrate the format of a correct answer.
CCCN(c1nc(-c2ccc(OC)cc2C)n(C)n1)[C@@H](CC)c1ccc(C(F)(F)F)cc1.Cl = 270
CCCC[C@@H](c1ccccc1)N(CCC)c1nc(-c2ccc(Cl)cc2OC)n(C)n1.Cl = 56
CCCN(c1nc(-c2ccc(Cl)cc2Cl)n(C)n1)C(C1CC1)C1CC1 = 90

a. CCCN(c1nc(-c2ccc(Cl)cc2OC)n(C)n1)[C@@H](CC)c1ccc(C(F)(F)F)cc1.Cl
b. CCC[C@@H](c1ccccc1)N(CCC)c1nc(-c2ccc(OC)cc2OC)n(C)n1.Cl
[in] Which entry shows the lesser value of IC50 here, a or b ? Respond with the label that goes with your answer.
[out] a

====

- target.desc: Corticotropin-releasing factor receptor 1 (Homo sapiens, UniProt P34998)
pKi: −log10 of the molar value.
reported.property: pKi

CCCC(c1ccccc1)N(CCC)c1nc(-c2ccc(Cl)cc2OC)n(C)n1 (stereo not given) = 7.85

A. CCC[C@@H](c1ccccc1)N(CCC)c1nc(-c2ccc(OC)cc2OC)n(C)n1.Cl
B. CCC[C@@H](c1ccccc1)N(CCC)c1nc(-c2ccc(Cl)cc2OC)n(C)n1.Cl
[in] Which entry shows the lesser value of pKi here, A or B ? Respond with the label that goes with your answer.
[out] A

====

- experimental.protocol: Clearance of compound in rats upon intravenous administration of 1 mg/kg
- Assay type: ADME, organism-based
- Design: dose 1 mg/kg, route intravenous
- study.conditions: rat, in vivo
reported.property: clearance (mL/min/kg)
Give the number; mL/min/kg is assumed, so skip it.

[in] I am curious: what clearance value has been reported for CCCCC(c1ccc(F)cc1)N(CCC)c1nc(-c2ccc(Cl)cc2OC)n(C)n1 (stereo unspecified) ?
[out] 27.7

====

- experimental.protocol: Area under concentration time curve upon oral administration of 2 mg/kg to rats
- Assay type: ADME, organism-based
- Design: dose 2 mg/kg, route oral
- study.conditions: rat, in vivo
reported.property: AUC (µg·h/mL)
Give the number; µg·h/mL is assumed, so skip it.

[in] I am curious: what AUC value has been reported for CCCCC(c1ccc(F)cc1)N(CCC)c1nc(-c2ccc(Cl)cc2OC)n(C)n1 (stereo unspecified) ?
[out] 1.01

Entry source: ChEMBL document CHEMBL1142705
